Target: DRB5*0101 molecules (Homo sapiens, UniProt P01903+Q30154)
Test: Inhibition of radiolabeled TT
Residues, ends and D or L forms follow the SMILES beside them.
IC50 values for the compounds below.

[
  {
    "compound": "CC[C@H](C)[C@H](NC(=O)[C@H](CC(N)=O)NC(=O)[C@H](CCCCN)NC(=O)[C@H](Cc1ccccc1)NC(=O)[C@H](Cc1ccccc1)NC(=O)[C@H](Cc1c[nH]cn1)NC(=O)[C@@H](NC(=O)[C@H](C)NC(=O)[C@@H]1CCCN1C(=O)[C@H](CC(N)=O)NC(=O)[C@@H](N)CCC(=O)O)C(C)C)C(=O)N[C@H](C(=O)N[C@H](C(=O)N1CCC[C@H]1C(=O)N[C@@H](CCCNC(=N)N)C(=O)O)[C@@H](C)O)C(C)C [(85-99)88A] (H-ENPAVHFFKNIVTPR-OH)",
    "value": "945 nM"
  }
]

# evaluate next
Bench note, DRB5*0101 molecules (Homo sapiens, UniProt P01903+Q30154): entry CC(C)[C@H](NC(=O)[C@H](C)NC(=O)[C@H](CC(N)=O)NC(=O)[C@H](CCCCN)NC(=O)[C@H](Cc1ccccc1)NC(=O)[C@H](Cc1ccccc1)NC(=O)[C@H](Cc1c[nH]cn1)NC(=O)[C@@H](NC(=O)[C@@H](NC(=O)[C@@H]1CCCN1C(=O)[C@H](CC(N)=O)NC(=O)[C@@H](N)CCC(=O)O)C(C)C)C(C)C)C(=O)N[C@H](C(=O)N1CCC[C@H]1C(=O)N[C@@H](CCCNC(=N)N)C(=O)O)[C@@H](C)O [(85-99)95A] (H-ENPVVHFFKNAVTPR-OH) , its IC50 = 1100 nM

====

Molecular target: DRB5*0101 molecules (Homo sapiens, UniProt P01903+Q30154)
Assay: Inhibition of radiolabeled TT
Residues, ends and D or L forms follow the SMILES beside them.
Recorded IC50 values for a group of compounds are listed next.
Give just the numeric value; nM need not be written.

[
  {
    "compound": "CC[C@H](C)[C@H](NC(=O)[C@H](CC(N)=O)NC(=O)[C@H](CCCCN)NC(=O)[C@H](Cc1ccccc1)NC(=O)[C@H](Cc1ccccc1)NC(=O)[C@H](Cc1c[nH]cn1)NC(=O)[C@@H](N)C(C)C)C(=O)N[C@H](C(=O)N[C@H](C(=O)N1CCC[C@H]1C(=O)N[C@@H](CCCNC(=N)N)C(=O)O)[C@@H](C)O)C(C)C [(89-99)] (H-VHFFKNIVTPR-OH)",
    "unit_string": "nM",
    "IC50": 1200
  }
]

--- query ---
For record CC[C@H](C)[C@H](NC(=O)[C@H](CC(N)=O)NC(=O)[C@H](CCCCN)NC(=O)[C@H](Cc1ccccc1)NC(=O)[C@H](Cc1ccccc1)NC(=O)[C@H](Cc1c[nH]cn1)NC(=O)[C@@H](NC(=O)[C@@H](NC(=O)[C@@H]1CCCN1C(=O)[C@H](C)NC(=O)[C@@H](N)CCC(=O)O)C(C)C)C(C)C)C(=O)N[C@H](C(=O)N[C@H](C(=O)N1CCC[C@H]1C(=O)N[C@@H](CCCNC(=N)N)C(=O)O)[C@@H](C)O)C(C)C [(85-99)86A] (H-EAPVVHFFKNIVTPR-OH) the listed IC50 is 940
